target: UniProtKB P70313; assay: Inhibition of C57BL/6 mouse eNOS assessed as conversion of oxyhemoglobin to methemoglobin by UV spectrophotometer analysis
Sequence (P70313 whole entry): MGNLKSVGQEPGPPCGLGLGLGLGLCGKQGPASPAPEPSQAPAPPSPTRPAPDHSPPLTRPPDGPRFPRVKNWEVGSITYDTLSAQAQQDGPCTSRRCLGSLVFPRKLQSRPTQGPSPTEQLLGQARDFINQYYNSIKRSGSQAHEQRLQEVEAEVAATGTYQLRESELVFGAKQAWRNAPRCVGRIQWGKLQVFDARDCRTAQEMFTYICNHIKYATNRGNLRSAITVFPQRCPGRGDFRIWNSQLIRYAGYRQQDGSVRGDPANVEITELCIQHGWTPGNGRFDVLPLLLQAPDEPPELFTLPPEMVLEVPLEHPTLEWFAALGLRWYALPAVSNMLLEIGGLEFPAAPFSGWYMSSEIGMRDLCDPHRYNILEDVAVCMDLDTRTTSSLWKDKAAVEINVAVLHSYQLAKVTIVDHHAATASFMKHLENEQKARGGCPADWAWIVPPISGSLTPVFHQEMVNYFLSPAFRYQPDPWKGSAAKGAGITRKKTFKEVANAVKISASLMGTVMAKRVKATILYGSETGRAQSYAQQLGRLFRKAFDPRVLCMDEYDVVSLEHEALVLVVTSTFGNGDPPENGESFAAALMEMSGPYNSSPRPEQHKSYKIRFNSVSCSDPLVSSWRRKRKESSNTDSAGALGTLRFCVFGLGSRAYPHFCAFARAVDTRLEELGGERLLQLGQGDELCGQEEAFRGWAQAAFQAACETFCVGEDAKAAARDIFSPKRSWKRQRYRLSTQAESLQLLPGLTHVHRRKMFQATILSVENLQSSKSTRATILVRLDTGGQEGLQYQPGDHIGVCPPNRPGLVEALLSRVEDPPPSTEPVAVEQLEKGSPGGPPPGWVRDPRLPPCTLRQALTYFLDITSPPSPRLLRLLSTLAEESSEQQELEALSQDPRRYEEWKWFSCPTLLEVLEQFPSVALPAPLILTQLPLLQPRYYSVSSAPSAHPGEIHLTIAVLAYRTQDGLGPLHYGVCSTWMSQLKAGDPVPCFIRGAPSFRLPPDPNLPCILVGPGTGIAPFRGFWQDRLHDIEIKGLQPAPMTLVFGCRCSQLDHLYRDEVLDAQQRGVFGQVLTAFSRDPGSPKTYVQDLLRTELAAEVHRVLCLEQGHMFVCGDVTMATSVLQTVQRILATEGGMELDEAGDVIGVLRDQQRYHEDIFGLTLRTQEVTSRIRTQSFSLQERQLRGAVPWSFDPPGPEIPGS
Measured Ki by item

{"columns": ["STRUCTURE AS SMILES", "UNIT INFO", "VALUE RELATION SIGN", "Ki"],
 "data": [
  ["O=C(Cn1cnc2cccnc21)c1ccc([N+](=O)[O-])cc1", "µM", "=", 70.2],
  ["CCCc1nccn1CC(=O)c1ccc([N+](=O)[O-])cc1", "µM", "=", 45],
  ["O=C(Cn1ccnc1)c1ccc([N+](=O)[O-])cc1", "µM", ">", 5000],
  ["Cc1ccnn1CC(=O)c1ccc([N+](=O)[O-])cc1", "µM", "=", 30],
  ["O=C(Cn1cnc2ncccc21)c1ccc([N+](=O)[O-])cc1", "µM", "=", 45],
  ["Cc1nccn1CC(=O)c1ccc([N+](=O)[O-])cc1", "µM", ">", 2000]
]}

These entries and their values trace back to ChEMBL document CHEMBL1944541.
